IC50: recorded values
System: NCI-H1975
Assay: Cytotoxicity against human NCI-H1975 cells harboring EGFR double L858R/T790M mutant measured after 72 hrs by Celltiter-Glo assay
Assay type: functional, cell-based
Conditions: NCI-H1975, 72 h
Lab book: enter the figure in µM, no units written.

COMPOUND: COC1=C(c2ccc(OC)cc2)C(=O)C=C(c2ccc(OC)cc2)C1=O
SYSTEM: NCI-H1975
IC50 [µM]: 3.1

COMPOUND: COc1cccc2c1C(=O)c1c(O)c3c(c(O)c1C2=O)C[C@@](O)(C(=O)CO)C[C@@H]3O[C@H]1C[C@H](N)[C@H](O)[C@H](C)O1 [DOXORUBICIN]
SYSTEM: NCI-H1975
IC50 [µM]: 0.087

Query string: # lookup: IC50 of "COc1ccc(-c2cc(O)c(-c3ccc(OC)cc3)c(OC)c2OC)cc1"
Result string: 4.4
